test: Serum noribogaine pharmacokinetics in patients, Phase IB study; assay type: in vivo, human; conditions: human, serum; Cohort 3 (180 mg), opioid-dependent patients, mean ± SD; unit inferred
test readout: Vd/F (L)
State the answer as a number, implicitly in L.

Value of measured Vd/F for the entry CC[C@H]1CC2C[C@H]3c4[nH]c5ccc(O)cc5c4CCN(C2)C13 : 1030

* * *

assay: Plasma noribogaine pharmacokinetics, ascending single oral dose, healthy volunteers; format: in vivo, human; details: human; healthy male volunteers, single oral 10 mg noribogaine, plasma, mean (n = 6); read-out: AUC0-216
test readout: AUC(0-t) (ng·h/mL)
State the answer as a number, implicitly in ng·h/mL.

Value of measured AUC(0-t) for the entry CC[C@H]1CC2C[C@H]3c4[nH]c5ccc(O)cc5c4CCN(C2)C13 [Noribogaine] : 251

* * *

assay: Serum noribogaine pharmacokinetics in patients, Phase IB study; format: in vivo, human; conditions: human; Cohort 2 (120 mg), opioid-dependent patients, serum, mean ± SD
test readout: Tmax (h)
State the answer as a number, implicitly in h.

Value of measured Tmax for the entry CC[C@H]1CC2C[C@H]3c4[nH]c5ccc(O)cc5c4CCN(C2)C13 : 2.99

* * *

test: Plasma noribogaine pharmacokinetics, ascending single oral dose, healthy volunteers; format: in vivo, human; conditions: human; healthy male volunteers, single oral 60 mg noribogaine, plasma, mean (n = 6); read-out: t1/2 (converted)
test readout: half-life

Value of measured half-life for the entry CC[C@H]1CC2C[C@H]3c4[nH]c5ccc(O)cc5c4CCN(C2)C13 : 29.1 h

* * *

test: Serum noribogaine pharmacokinetics in patients, Phase IB study; assay type: in vivo, human; details: human; Cohort 3 (180 mg), opioid-dependent patients, serum, mean ± SD
test readout: AUC(0-t) (ng·h/mL)
State the answer as a number, implicitly in ng·h/mL.

Value of measured AUC(0-t) for the entry CC[C@H]1CC2C[C@H]3c4[nH]c5ccc(O)cc5c4CCN(C2)C13 : 6520

* * *

assay: Plasma noribogaine pharmacokinetics, ascending single oral dose, healthy volunteers; format: in vivo, human; conditions: human; healthy male volunteers, single oral 3 mg noribogaine, plasma, mean (n = 6)
test readout: Vd/F
Write your answer as a measured quantity: the number, then the unit.

Value of measured Vd/F for the entry CC[C@H]1CC2C[C@H]3c4[nH]c5ccc(O)cc5c4CCN(C2)C13 [Noribogaine] : 2490 L

* * *

test: Plasma noribogaine pharmacokinetics, ascending single oral dose, healthy volunteers; type: in vivo, human; settings: human; healthy male volunteers, single oral 30 mg noribogaine, plasma, mean (n = 6)
test readout: Cmax (ng/mL)
State the answer as a number, implicitly in ng/mL.

Value of measured Cmax for the entry CC[C@H]1CC2C[C@H]3c4[nH]c5ccc(O)cc5c4CCN(C2)C13 : 55.9

* * *

test: Plasma noribogaine pharmacokinetics, ascending single oral dose, healthy volunteers; assay type: in vivo, human; conditions: human; healthy male volunteers, single oral 30 mg noribogaine, plasma, mean (n = 6); read-out: AUC0-216
test readout: AUC(0-t) (ng·h/mL)
State the answer as a number, implicitly in ng·h/mL.

Value of measured AUC(0-t) for the entry CC[C@H]1CC2C[C@H]3c4[nH]c5ccc(O)cc5c4CCN(C2)C13 [Noribogaine] : 678

* * *

assay: Serum noribogaine pharmacokinetics in patients, Phase IB study; type: in vivo, human; conditions: human; Cohort 2 (120 mg), opioid-dependent patients, serum, mean ± SD
test readout: half-life (h)
State the answer as a number, implicitly in h.

Value of measured half-life for the entry CC[C@H]1CC2C[C@H]3c4[nH]c5ccc(O)cc5c4CCN(C2)C13 [Noribogaine] : 30.4

* * *

experiment: Serum noribogaine pharmacokinetics in patients, Phase IB study; format: in vivo, human; settings: human; Cohort 2 (120 mg), opioid-dependent patients, serum, mean ± SD; read-out: AUC(0-¥)
test readout: AUC (ng·h/mL)
State the answer as a number, implicitly in ng·h/mL.

Value of measured AUC for the entry CC[C@H]1CC2C[C@H]3c4[nH]c5ccc(O)cc5c4CCN(C2)C13 [Noribogaine] : 3280

* * *

assay: Plasma noribogaine pharmacokinetics, ascending single oral dose, healthy volunteers; format: in vivo, human; conditions: human; healthy male volunteers, single oral 10 mg noribogaine, plasma, mean (n = 6)
test readout: Tmax (h)
State the answer as a number, implicitly in h.

Value of measured Tmax for the entry CC[C@H]1CC2C[C@H]3c4[nH]c5ccc(O)cc5c4CCN(C2)C13 : 2.9

* * *

test: Plasma noribogaine pharmacokinetics, ascending single oral dose, healthy volunteers; format: in vivo, human; details: human; healthy male volunteers, single oral 30 mg noribogaine, plasma, mean (n = 6); read-out: t1/2 (converted)
test readout: half-life (h)
State the answer as a number, implicitly in h.

Value of measured half-life for the entry CC[C@H]1CC2C[C@H]3c4[nH]c5ccc(O)cc5c4CCN(C2)C13 : 27.6

* * *

assay: Plasma noribogaine pharmacokinetics, ascending single oral dose, healthy volunteers; assay type: in vivo, human; details: human; healthy male volunteers, single oral 3 mg noribogaine, plasma, mean (n = 6)
test readout: AUC(0-inf) (ng·h/mL)
State the answer as a number, implicitly in ng·h/mL.

Value of measured AUC(0-inf) for the entry CC[C@H]1CC2C[C@H]3c4[nH]c5ccc(O)cc5c4CCN(C2)C13 : 74.2

* * *

experiment: Serum noribogaine pharmacokinetics in patients, Phase IB study; type: in vivo, human; conditions: human; Cohort 3 (180 mg), opioid-dependent patients, serum, mean ± SD
test readout: Tmax (h)
State the answer as a number, implicitly in h.

Value of measured Tmax for the entry CC[C@H]1CC2C[C@H]3c4[nH]c5ccc(O)cc5c4CCN(C2)C13 : 4.41

* * *

assay: Plasma noribogaine pharmacokinetics, ascending single oral dose, healthy volunteers; format: in vivo, human; settings: male, human, plasma; healthy volunteers, 3-60 mg single oral doses; read-out: Mean half-life estimates across dose groups
test readout: half-life

Value of measured half-life for the entry CC[C@H]1CC2C[C@H]3c4[nH]c5ccc(O)cc5c4CCN(C2)C13 : 28 to 50 h

* * *

experiment: Plasma noribogaine pharmacokinetics, ascending single oral dose, healthy volunteers; format: in vivo, human; conditions: human; healthy male volunteers, single oral 60 mg noribogaine, plasma, mean (n = 6)
test readout: Tmax (h)
State the answer as a number, implicitly in h.

Value of measured Tmax for the entry CC[C@H]1CC2C[C@H]3c4[nH]c5ccc(O)cc5c4CCN(C2)C13 [Noribogaine] : 2.4

* * *

Test: Serum noribogaine pharmacokinetics in patients, Phase IB study
Assay type: in vivo, human
Details: human; Cohort 3 (180 mg), opioid-dependent patients, serum, mean ± SD
Description: The efficacy of noribogaine in humans was evaluated in opioid-dependent participants in a randomized, placebo-controlled, double-blind trial. […] See U.S. application Ser. No. 14/214,157, filed Mar. 14, 2014 and Ser. No. 14/346,655, filed Mar. 21, 2014, which are incorporated herein by reference in their entireties. Three cohorts of nine (9) subjects (6 administered noribogaine and 3 administered placebo in each cohort) were evaluated for tolerability, pharmacokinetics, and efficacy. […]
test readout: Cmax (ng/mL)
State the answer as a number, implicitly in ng/mL.

Value of measured Cmax for the entry CC[C@H]1CC2C[C@H]3c4[nH]c5ccc(O)cc5c4CCN(C2)C13 : 268

* * *

test: Plasma noribogaine pharmacokinetics, ascending single oral dose, healthy volunteers; type: in vivo, human; details: human; healthy male volunteers, single oral 10 mg noribogaine, plasma, mean (n = 6)
test readout: AUC(0-inf) (ng·h/mL)
State the answer as a number, implicitly in ng·h/mL.

Value of measured AUC(0-inf) for the entry CC[C@H]1CC2C[C@H]3c4[nH]c5ccc(O)cc5c4CCN(C2)C13 : 254

* * *

assay: Plasma noribogaine pharmacokinetics, ascending single oral dose, healthy volunteers; format: in vivo, human; conditions: human; healthy male volunteers, single oral 3 mg noribogaine, plasma, mean (n = 6)
test readout: Tmax (h)
State the answer as a number, implicitly in h.

Value of measured Tmax for the entry CC[C@H]1CC2C[C@H]3c4[nH]c5ccc(O)cc5c4CCN(C2)C13 [Noribogaine] : 1.9

* * *

test: Plasma noribogaine pharmacokinetics, ascending single oral dose, healthy volunteers; type: in vivo, human; settings: human; healthy male volunteers, single oral 30 mg noribogaine, plasma, mean (n = 6)
test readout: Vd/F (L)
State the answer as a number, implicitly in L.

Value of measured Vd/F for the entry CC[C@H]1CC2C[C@H]3c4[nH]c5ccc(O)cc5c4CCN(C2)C13 : 1850

* * *

assay: Plasma noribogaine pharmacokinetics, ascending single oral dose, healthy volunteers; assay type: in vivo, human; conditions: human; healthy male volunteers, single oral 3 mg noribogaine, plasma, mean (n = 6); read-out: t1/2 (converted)
test readout: half-life (h)
State the answer as a number, implicitly in h.

Value of measured half-life for the entry CC[C@H]1CC2C[C@H]3c4[nH]c5ccc(O)cc5c4CCN(C2)C13 [Noribogaine] : 40.9

* * *

assay: Serum noribogaine pharmacokinetics in patients, Phase IB study; format: in vivo, human; conditions: human; Cohort 2 (120 mg), opioid-dependent patients, serum, mean ± SD
test readout: Cmax (ng/mL)
State the answer as a number, implicitly in ng/mL.

Value of measured Cmax for the entry CC[C@H]1CC2C[C@H]3c4[nH]c5ccc(O)cc5c4CCN(C2)C13 : 173
